# measurement_notes: physchem
# conditions: buffer, pH 6.5
Decide by logD: equal to or exceeding 3 means label 1, less means label 0.

Exam item: decide whether the reported logD for Cc1ccccc1Sc1nn(-c2ccc(C(=O)O)cc2)c2ccc(C(=O)N(C)C)cc12 is at least 3.
label 0

Exam item: decide whether the reported logD for CN(C)C(=O)c1ccc2c(c1)c(Oc1c(Cl)cccc1Cl)nn2-c1ccc(C(=O)O)cc1 is at least 3.
label 0

Exam item: decide whether the reported logD for CN(C)C(=O)c1ccc2c(c1)c(Sc1cc(Cl)ccc1Cl)nn2-c1ccc(C(=O)O)cc1 is at least 3.
label 0

Exam item: decide whether the reported logD for O=C(O)c1ccc(-n2nc(Sc3c(Cl)cccc3Cl)c3cc(C(=O)N4CCC4)ccc32)cc1 is at least 3.
label 0

Exam item: decide whether the reported logD for CCN(C)C(=O)c1ccc2c(c1)c(Sc1c(Cl)cccc1Cl)nn2-c1ccc(C(=O)O)cc1 is at least 3.
label 0

Exam item: decide whether the reported logD for O=C(O)[C@H]1CC[C@H](n2nc(Oc3c(Cl)cccc3Cl)c3ccccc32)CC1 is at least 3.
label 1

Exam item: decide whether the reported logD for CN1CCN(C(=O)c2ccc3c(c2)c(Sc2c(Cl)cccc2Cl)nn3-c2ccc(C(=O)O)cc2)CC1 is at least 3.
label 0

Exam item: decide whether the reported logD for O=C(O)c1ccc(-n2nc(Cc3c(Cl)cccc3Cl)c3ccccc32)cc1 is at least 3.
label 0

Exam item: decide whether the reported logD for Cc1ccc([C@@H](NC(=O)Cc2ccc3oc([C@@H](O)c4c(C)noc4C)cc3c2)c2ccccc2)c(C)c1 is at least 3.
label 1

Exam item: decide whether the reported logD for CCc1nn(C)c(CC)c1Oc1nn(-c2ccc(C(=O)O)cc2)c2ccccc12 is at least 3.
label 0

Exam item: decide whether the reported logD for CN(C)C(=O)c1ccc2c(c1)c(Nc1c(Cl)cccc1Cl)nn2-c1ccc(C(=O)O)cc1 is at least 3.
label 0

Exam item: decide whether the reported logD for CN(C)C(=O)c1ccc2c(c1)c(Sc1c(F)cccc1Cl)nn2-c1ccc(C(=O)O)cc1 is at least 3.
label 0

Exam item: decide whether the reported logD for CN(c1c(Cl)cccc1Cl)c1nn(-c2ccc(C(=O)O)cc2)c2ccccc12 is at least 3.
label 0

Exam item: decide whether the reported logD for N#Cc1ccc2c(c1)c(Oc1c(Cl)cccc1Cl)nn2-c1ccc(C(=O)O)cc1 is at least 3.
label 0

Exam item: decide whether the reported logD for O=C(O)c1ccc(-n2nc(Oc3c(Cl)cccc3Cl)c3cccnc32)cc1 is at least 3.
label 0

Exam item: decide whether the reported logD for O=C(O)c1ccc(-n2nc(Oc3c(Cl)cccc3Cl)c3cccc(F)c32)cc1 is at least 3.
label 0

Exam item: decide whether the reported logD for O=C(O)c1ccc(-n2nc(Oc3c(Cl)cccc3Cl)c3ccccc32)cn1 is at least 3.
label 1

Exam item: decide whether the reported logD for CN(C)C(=O)c1ccc2c(c1)c(Sc1ccccc1)nn2-c1ccc(C(=O)O)cc1 is at least 3.
label 0

Exam item: decide whether the reported logD for O=C(O)c1ccc(-n2nc(Oc3c(Cl)cccc3Cl)c3ccccc32)cc1 is at least 3.
label 0

The values you see were collected from ChEMBL document CHEMBL3867469.
